TARGET UNDER TEST: human mu opioid receptors (Homo sapiens)
Sequence (P35372 whole entry): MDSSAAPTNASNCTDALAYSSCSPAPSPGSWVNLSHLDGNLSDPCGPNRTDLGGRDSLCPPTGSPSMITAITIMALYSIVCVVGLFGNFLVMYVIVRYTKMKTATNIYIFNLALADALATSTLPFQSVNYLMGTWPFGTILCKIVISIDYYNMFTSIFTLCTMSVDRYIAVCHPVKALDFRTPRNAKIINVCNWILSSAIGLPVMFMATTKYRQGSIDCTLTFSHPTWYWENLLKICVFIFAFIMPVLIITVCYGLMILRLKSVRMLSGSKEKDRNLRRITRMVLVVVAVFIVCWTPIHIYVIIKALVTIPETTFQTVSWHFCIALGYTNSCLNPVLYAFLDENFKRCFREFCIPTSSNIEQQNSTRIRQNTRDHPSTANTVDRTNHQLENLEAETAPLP
TEST NAME: Inhibition of forskolin-stimulated cAMP accumulation in CHO-mu cells
TEST CONDITIONS: read-out: EC50 of agonist activity (agonist detection mode); CHO-mu, no orthosteric agonist; mean (95% CI)
VALUE TYPE: EC50 (µM)

- COMPOUND: "O=[N+]([O-])c1ccc(-c2csc(=Nc3c(Cl)cccc3Cl)[nH]2)cc1 [BMS-986121]"
  REPORTED VALUE: 14

* * *

TARGET UNDER TEST: mu-opioid receptor (OPRM1) (Homo sapiens, UniProt P35372)
TEST NAME: cell-based
Reported EC50 values follow for various compounds

- COMPOUND: "COc1ccc(C2SCCN2S(=O)(=O)c2ccc(C)cc2)cc1Br (stereo not drawn)"
  SCALE UNIT: "µM"
  EC50: 4
- COMPOUND: "COc1ccc(C2SCCN2S(=O)(=O)c2ccc(Br)cc2)cc1 (stereo not drawn)"
  SCALE UNIT: "µM"
  EC50: 7
- COMPOUND: "COc1ccc(C2SCCN2S(=O)(=O)c2ccc(OC)cc2)cc1 (stereo not drawn)"
  SCALE UNIT: "µM"
  EC50: 37

* * *

TARGET UNDER TEST: mu-opioid receptor (OPRM1) (Homo sapiens, UniProt P35372)
TEST NAME: β-arrestin recruitment assay (PathHunter) in U2OS-OPRM1 cells
TEST CONDITIONS: U2OS-OPRM1, β-arrestin PAM and SAM detection modes

- MOLECULE: "O=S(=O)(c1ccc(Cl)cc1)N1CCSC1c1ccc(Br)cc1 (stereo not drawn)"
  Description (PAM efficacy class / SAM): "Weak PAM"
- MOLECULE: "COc1cc(Br)ccc1C1SCCN1S(=O)(=O)c1ccc(Cl)cc1 (racemic)"
  Description (PAM efficacy class / SAM): "SAM"
- MOLECULE: "COc1ccc(C2SCCN2S(=O)(=O)c2ccc(Br)cc2)cc1 (stereo not drawn)"
  Description (PAM efficacy class / SAM): "Moderate PAM"
- MOLECULE: "COc1ccc(C2SCCN2S(=O)(=O)c2ccc(Br)cc2)cc1[N+](=O)[O-] (stereo not drawn)"
  Description (PAM efficacy class / SAM): "Moderate PAM"
- MOLECULE: "COc1ccc(C2SCCN2S(=O)(=O)c2ccc([N+](=O)[O-])cc2)cc1Br (stereo not drawn)"
  Description (PAM efficacy class / SAM): "Moderate PAM"
- MOLECULE: "COc1ccc(C2SCCN2S(=O)(=O)c2ccccc2)cc1 (stereo not drawn)"
  Description (PAM efficacy class / SAM): "Weak PAM"
- MOLECULE: "COc1ccc(C2SCCN2S(=O)(=O)c2ccc(OC)cc2)cc1 (stereo not drawn)"
  Description (PAM efficacy class / SAM): "Weak PAM"
- MOLECULE: "COc1ccc(C2SCCN2S(=O)(=O)c2ccc(Br)cc2)cc1OC (racemic)"
  Description (PAM efficacy class / SAM): "Weak PAM"

* * *

TARGET UNDER TEST: mu-opioid receptor (OPRM1) (Homo sapiens)
TEST NAME: cell-based

- MOLECULE: "O=S(=O)(c1ccc(Cl)cc1)N1CCSC1c1cccc(Cl)c1 (stereo not drawn)"
  EC50 / µM: 5
- MOLECULE: "COc1ccc(S(=O)(=O)N2CCSC2c2ccc(OC)c(Br)c2)cc1 (stereo not drawn)"
  EC50 / µM: 6
- MOLECULE: "COc1ccc(C2SCCN2S(=O)(=O)c2ccccc2)cc1 (stereo not drawn)"
  EC50 / µM: 23
- MOLECULE: "O=S(=O)(c1ccc(Cl)cc1)N1CCSC1c1ccc(Br)cc1 (stereo not drawn)"
  EC50 / µM: 6
- MOLECULE: "COc1ccc(C2SCCN2S(=O)(=O)c2cccc(C)c2)cc1Br (stereo not drawn)"
  EC50 / µM: 9
- MOLECULE: "COc1ccc(C2SCCN2S(=O)(=O)c2ccc(Br)cc2)cc1[N+](=O)[O-] (stereo not drawn)"
  EC50 / µM: 2
- MOLECULE: "COc1ccc(C2SCCN2S(=O)(=O)c2ccc(Cl)cc2)cc1[N+](=O)[O-] (stereo not drawn)"
  EC50 / µM: 4
- MOLECULE: "COc1ccc(C2SCCN2S(=O)(=O)c2ccc([N+](=O)[O-])cc2)cc1Br (stereo not drawn)"
  EC50 / µM: 2
- MOLECULE: "COc1ccc(S(=O)(=O)N2CCSC2c2ccc(Br)cc2)cc1 (stereo not drawn)"
  EC50 / µM: 7
